Attribution: patent US10059655B2

Provide the reported Conc (Concentration of RNA) 2nd IM of each item.
- Protocol: Percentage of encapsulated RNA and RNA concentration of replicon liposomes (Quant-iT RiboGreen)
- Format: physicochemical
- Condition notes: RSV-F replicon RNA LNP prepared for 2nd immunization
Entry rule: numbers only, all in ng/mL.

Exam item: Looking for the measured Conc (Concentration of RNA) 2nd IM of CCCCC/C=C\C/C=C\CCCCCCCC(=O)OCC(COC(=O)CCC(OCCCCCCCC)OCCCCCCCC)COC(=O)OCC1CCCN(CC)C1 (stereo not shown) , can you help?
Marked response: 10091

Exam item: Looking for the measured Conc (Concentration of RNA) 2nd IM of CCCCC/C=C\C/C=C\CCCCCCCC(=O)OCC(COC(=O)CCC(OCCCCCCCC)OCCCCCCCC)COC(=O)C1CCN(CC2CC2)CC1 (stereo not shown) , can you help?
Marked response: 11495

Exam item: Looking for the measured Conc (Concentration of RNA) 2nd IM of CCCCC/C=C\C/C=C\CCCCCCCC(=O)OCC(COC(=O)CCC(OCCCCCCCC)OCCCCCCCC)COC(=O)C1(C)CCN(C)CC1 (stereo not shown) , can you help?
Marked response: 9650

Exam item: Looking for the measured Conc (Concentration of RNA) 2nd IM of CCCCC/C=C\C/C=C\CCCCCCCC(=O)OCC(COC(=O)CCC(OCCCCCCCC)OCCCCCCCC)COC(=O)C1CCN(C)C1 (stereo not shown) , can you help?
Marked response: 9937

Exam item: Looking for the measured Conc (Concentration of RNA) 2nd IM of CCCCC/C=C\C/C=C\CCCCCCCC(=O)OCC(COC(=O)CCC(OCCCCCCCC)OCCCCCCCC)COC(=O)OC1CCN(C)CC1 (stereo not shown) , can you help?
Marked response: 9665

Exam item: Looking for the measured Conc (Concentration of RNA) 2nd IM of CCCCC/C=C\C/C=C\CCCCCCCC(=O)OCC(COC(=O)CCCCCCC/C=C\C/C=C\CCCCC)COC(=O)C1(C)CCN(C)C1 (stereo not shown) , can you help?
Marked response: 11279

Exam item: Looking for the measured Conc (Concentration of RNA) 2nd IM of CCCCC/C=C\C/C=C\CCCCCCCC(=O)OCC(COC(=O)CCC(OCCCCCCCC)OCCCCCCCC)COC(=O)CCN(C)C (stereo not shown) , can you help?
Marked response: 9653

---

- Protocol: Particle size of the lipid nanoparticle (Z-average, dynamic light scattering, Malvern Zetasizer)
- Assay type: physicochemical
- Condition notes: RSV-F replicon RNA LNP, DLS, 2nd immunization
Provide the reported Size 2nd IM of each item.
Entry rule: numbers only, all in nm.

Exam item: Looking for the measured Size 2nd IM of CCCCC/C=C\C/C=C\CCCCCCCC(=O)OCC(COC(=O)CCC(OCCCCCCCC)OCCCCCCCC)COC(=O)OC1CCN(C)CC1 (stereo not shown) [Example 48] , can you help?
Marked response: 134.2

Exam item: Looking for the measured Size 2nd IM of CCCCC/C=C\C/C=C\CCCCCCCC(=O)OCC(COC(=O)CCC(OCCCCCCCC)OCCCCCCCC)COC(=O)C1CCN(CC2CC2)CC1 (stereo not shown) [Example 34] , can you help?
Marked response: 135.4

Exam item: Looking for the measured Size 2nd IM of CCCCC/C=C\C/C=C\CCCCCCCC(=O)OCC(COC(=O)CCCCCCC/C=C\C/C=C\CCCCC)COC(=O)C1(C)CCN(C)C1 (stereo not shown) [Example 1] , can you help?
Marked response: 133.5

Exam item: Looking for the measured Size 2nd IM of CCCCC/C=C\C/C=C\CCCCCCCC(=O)OCC(COC(=O)CCC(OCCCCCCCC)OCCCCCCCC)COC(=O)CCN(C)C (stereo not shown) [Example 32] , can you help?
Marked response: 135

Exam item: Looking for the measured Size 2nd IM of CCCCC/C=C\C/C=C\CCCCCCCC(=O)OCC(COC(=O)CCC(OCCCCCCCC)OCCCCCCCC)COC(=O)C1CCN(C)C1 (stereo not shown) [Example 35] , can you help?
Marked response: 137.5

Exam item: Looking for the measured Size 2nd IM of CCCCC/C=C\C/C=C\CCCCCCCC(=O)OCC(COC(=O)CCC(OCCCCCCCC)OCCCCCCCC)COC(=O)OCC1CCCN(CC)C1 (stereo not shown) [Example 15] , can you help?
Marked response: 139.4

Exam item: Looking for the measured Size 2nd IM of CCCCC/C=C\C/C=C\CCCCCCCC(=O)OCC(COC(=O)CCC(OCCCCCCCC)OCCCCCCCC)COC(=O)C1(C)CCN(C)CC1 (stereo not shown) [Example 40] , can you help?
Marked response: 137.3

---

- Protocol: Measurement of mRNA encapsulation in lipid nanoparticles (Quant-iT Ribogreen)
- Format: physicochemical
- Condition notes: Leptin mRNA in LNP
Note to self: values exactly at 90% are Satisfied. So % encapsulation mRNA Leptin at or above 90% is Satisfied, below is Not satisfied.

Exam item: Is it the case that CCCCC/C=C\C/C=C\CCCCCCCC(=O)OCC(COC(=O)CCCCCCC/C=C\C/C=C\CCCCC)COC(=O)CCN1CCOCC1 [Example 10] has % encapsulation mRNA Leptin reaching or exceeding 90%?
Marked response: Not satisfied

Exam item: Is it the case that CCCCC/C=C\C/C=C\CCCCCCCC(=O)OCC(COC(=O)CCC(OCCCCCCCC)OCCCCCCCC)COC(=O)C1CCN(C)C1 (stereo not drawn) [Example 35] has % encapsulation mRNA Leptin reaching or exceeding 90%?
Marked response: Satisfied

Exam item: Is it the case that CCCCC/C=C\C/C=C\CCCCCCCC(=O)OCC(COC(=O)CCCCCCC/C=C\C/C=C\CCCCC)COC(=O)CCCN(C)C [Example 11] has % encapsulation mRNA Leptin reaching or exceeding 90%?
Marked response: Not satisfied

Exam item: Is it the case that CCCCC/C=C\C/C=C\CCCCCCCC(=O)OCC(COC(=O)CCC(OCCCCCCCC)OCCCCCCCC)COC(=O)C1(C)CCN(C)CC1 (stereo not drawn) [Example 40] has % encapsulation mRNA Leptin reaching or exceeding 90%?
Marked response: Satisfied

Exam item: Is it the case that CCCCC/C=C\C/C=C\CCCCCCCC(=O)OCC(COC(=O)CCC(OCCCCCCCC)OCCCCCCCC)COC(=O)OC1CN(C)C1 (stereo not drawn) [Example 49] has % encapsulation mRNA Leptin reaching or exceeding 90%?
Marked response: Not satisfied

---

- Protocol: Percentage of encapsulated RNA and RNA concentration of replicon liposomes (Quant-iT RiboGreen)
- Assay type: physicochemical
- Condition notes: RSV-F replicon RNA LNP prepared for 1st immunization
Reported property: Conc (Concentration of RNA) 1st IM (ng/mL)
Entry rule: numbers only, all in ng/mL.

Exam item: Looking for the measured Conc (Concentration of RNA) 1st IM of CCCCC/C=C\C/C=C\CCCCCCCC(=O)OCC(COC(=O)CCCCCCC/C=C\C/C=C\CCCCC)COC(=O)C1(C)CCN(C)C1 (stereo not shown) , can you help?
Marked response: 10352

Exam item: Looking for the measured Conc (Concentration of RNA) 1st IM of CCCCC/C=C\C/C=C\CCCCCCCC(=O)OCC(COC(=O)CCC(OCCCCCCCC)OCCCCCCCC)COC(=O)CCN(C)C (stereo not shown) , can you help?
Marked response: 8810

Exam item: Looking for the measured Conc (Concentration of RNA) 1st IM of CCCCC/C=C\C/C=C\CCCCCCCC(=O)OCC(COC(=O)CCC(OCCCCCCCC)OCCCCCCCC)COC(=O)OCC1CCCN(CC)C1 (stereo not shown) , can you help?
Marked response: 10203

Exam item: Looking for the measured Conc (Concentration of RNA) 1st IM of CCCCC/C=C\C/C=C\CCCCCCCC(=O)OCC(COC(=O)CCC(OCCCCCCCC)OCCCCCCCC)COC(=O)C1CCN(C)C1 (stereo not shown) , can you help?
Marked response: 10059

Exam item: Looking for the measured Conc (Concentration of RNA) 1st IM of CCCCC/C=C\C/C=C\CCCCCCCC(=O)OCC(COC(=O)CCC(OCCCCCCCC)OCCCCCCCC)COC(=O)C1(C)CCN(C)CC1 (stereo not shown) , can you help?
Marked response: 9461

Exam item: Looking for the measured Conc (Concentration of RNA) 1st IM of CCCCC/C=C\C/C=C\CCCCCCCC(=O)OCC(COC(=O)CCC(OCCCCCCCC)OCCCCCCCC)COC(=O)OC1CCN(C)CC1 (stereo not shown) , can you help?
Marked response: 9841

Exam item: Looking for the measured Conc (Concentration of RNA) 1st IM of CCCCC/C=C\C/C=C\CCCCCCCC(=O)OCC(COC(=O)CCC(OCCCCCCCC)OCCCCCCCC)COC(=O)C1CCN(CC2CC2)CC1 (stereo not shown) , can you help?
Marked response: 9240
